Data provenance is patent US20210332145A1.

Biological target: T1, human BCMA with a His tag (ACROBiosystems, Catalog No.: BCA-H522y) (human)
T1 construct: Bought His-tagged recombinant protein; also called huBCMA-His; Recombinant human BCMA
T1 chain: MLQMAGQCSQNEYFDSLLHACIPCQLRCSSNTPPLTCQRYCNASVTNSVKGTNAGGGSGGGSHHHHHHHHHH
Experiment: ELISA, plate-coated human BCMA-His
Endpoint label: EC50 (ng/mL)
The reply should be a number in ng/mL, with the unit left off.

What value of measured EC50 is listed for SCT-Aa18(h/h) (antibody, V domains shown, Full IgG format, chimeric: human IgG1 heavy chain constant region, human kappa light chain constant region) VH: EVQLQQSGPELVKPGASVKISCKASGYTFISYVMHWVKQKPGQGLEWIGYIIPYNDGTKYNEKFKGKATLTSDKSSSTAYMELSSLTSEDSAVYYCAKWGNWDEGTWFPYWGQGTLVTVSA VL: DVLMTQTPLSLPVSLGDQASFSCRSSQSIVHSDGNTYLEWYLQKPGQSPKLLIYKISNRFSGVPDRFSGSGSGTDFTLKISRVEAEDLGVYYCFQGSHVPWTFGGGTKLEIK ? 2.68

I am curious: what EC50 value has been reported for SCT-Aa10(h/h) (antibody, V domains shown, Full IgG format, chimeric: human IgG1 heavy chain constant region, human kappa light chain constant region) VH: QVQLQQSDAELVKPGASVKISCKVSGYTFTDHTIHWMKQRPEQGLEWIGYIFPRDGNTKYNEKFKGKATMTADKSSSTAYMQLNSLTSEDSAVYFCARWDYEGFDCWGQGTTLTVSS VL: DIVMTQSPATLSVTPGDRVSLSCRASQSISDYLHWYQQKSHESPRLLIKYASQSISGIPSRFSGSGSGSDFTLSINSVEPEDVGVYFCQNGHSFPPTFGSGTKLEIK ? 2.86

What does the record list as EC50 for SCT-Aa06(m/m) (antibody, V domains shown, Full IgG format: mouse IgG1 heavy chain constant region, mouse kappa light chain constant region) VH: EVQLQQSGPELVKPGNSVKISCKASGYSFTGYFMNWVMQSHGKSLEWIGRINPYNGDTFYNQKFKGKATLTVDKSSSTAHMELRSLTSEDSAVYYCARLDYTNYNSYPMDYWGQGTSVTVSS VL: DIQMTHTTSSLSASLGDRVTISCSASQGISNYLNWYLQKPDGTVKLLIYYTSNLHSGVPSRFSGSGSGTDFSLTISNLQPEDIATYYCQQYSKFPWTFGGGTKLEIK ? 2.34

For SCT-Aa10(m/m) (antibody, V domains shown, Full IgG format: mouse IgG1 heavy chain constant region, mouse kappa light chain constant region) VH: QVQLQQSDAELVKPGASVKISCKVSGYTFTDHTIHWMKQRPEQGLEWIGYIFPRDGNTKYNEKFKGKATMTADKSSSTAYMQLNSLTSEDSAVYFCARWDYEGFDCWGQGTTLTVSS VL: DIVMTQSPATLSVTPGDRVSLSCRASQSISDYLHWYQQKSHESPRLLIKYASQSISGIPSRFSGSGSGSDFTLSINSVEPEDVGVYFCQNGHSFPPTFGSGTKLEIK , what is its reported EC50? 2.57

# query: EC50 of entry SCT-Aa17(h/h) (antibody, V domains shown, Full IgG format, chimeric: human IgG1 heavy chain constant region, human kappa light chain constant region) VH: EVQLQQSGPELVKPGASVKMSCKASGYTFTSYVMDWVKQKPGQGLEWIGYINPYNDGTKYNEKFKGKATLTSDKSSSTVYMELSSLTSEDSAVYHCARSDYDYGYAMDYWGQGTSVTVSS VL: DIQMTQSPASLSLSVGETVTITCRASENIYSNLAWYQQKQGNSPQLLVYSATHLADGVPSRFSGSGSGTQYSLKINSLQSEDFGCYYCQHFWGPPWTFGGGTKLEIK 3.56

Could you tell me which EC50 is on file for SCT-Aa04(h/h) (antibody, V domains shown, Full IgG format, chimeric: human IgG1 heavy chain constant region, human kappa light chain constant region) VH: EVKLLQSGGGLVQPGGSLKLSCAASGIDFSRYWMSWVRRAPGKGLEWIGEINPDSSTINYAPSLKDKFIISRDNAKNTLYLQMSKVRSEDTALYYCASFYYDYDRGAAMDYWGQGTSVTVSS VL: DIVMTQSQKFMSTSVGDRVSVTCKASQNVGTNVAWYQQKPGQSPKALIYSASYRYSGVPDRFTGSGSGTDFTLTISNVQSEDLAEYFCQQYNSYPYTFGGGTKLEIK ? 2.48

Entry SCT-Aa14(m/m) (antibody, V domains shown, Full IgG format: mouse IgG1 heavy chain constant region, mouse kappa light chain constant region) VH: QVQLQQSDAELVKPGASVKISCKVSSYTFTDHTIHWMKQRPEQGLEWIGYIFPRDGSTKYNEKFKGKATLTADKSSSTAYMQLNSLTSEDSAVYFCARWDYEGFDYWGQGTTLTVSS VL: DIVMTQSPATLSVTPGDRVSLSCRASQNISDYLHWYQQKSHESPRLLIKYASQSISGIPSRFSGSGSGSDFTLSINSVEPEDVGVYYCQNGHSFPPTFGSGTKLEIK : reported EC50 = ? 2.52
